B1: ADD1 (parent)
chain: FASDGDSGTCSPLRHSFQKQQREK

# Variants of: B1
# Assay text: protein stability index of a GFP-peptide fusion (GPS, HEK-293T) (PSI 1-6); higher = more stable;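 also: lentivirally expressed fusions sorted by FACS into six bins by GFP to DsRed ratio, PSI derived from sequencing read proportions per bin multiplied by bin number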
# Experimental parameters: c terminus: a fixed tail appended
Test readout: protein stability index

Recorded protein stability index, per entry:
FASDGDSGTCEPLRHSFQKQQREK [S11E] = 4.5
FAPDGDSGTCSPLRHSFQKQQREK [S3P] = 2.37
FASDGDSGNCSPLRHSFQKQQREK [T9N] = 4.13
FASDGDSYTCSPLRHSFQKQQREK [G8Y] = 2.5
FASDGDSGTNSPLRHSFQKQQREK [C10N] = 5.17
FASDGDSGTCSPLRHSFQKCQREK [Q20C] = 2.97
FASDGDSGTCSPLRHSFQKQDREK [Q21D] = 2.81
FASDGDSGTCSPRRHSFQKQQREK [L13R] = 5.28

// query Record request: protein stability index value, item FASDGDVGTCSPLRHSFQKQQREK [S7V]
// result 1.49

// query Param item: FHSDGDSGTCSPLRHSFQKQQREK [A2H]
// result 2.76

// query Param item: FASDGWSGTCSPLRHSFQKQQREK [D6W]
// result 3.8

// query Param item: FASDGDSGTCSPLQHSFQKQQREK [R14Q]
// result 3.6

// query Param item: FASDGDSGTPSPLRHSFQKQQREK [C10P]
// result 3.65

// query Param item: FASDGDSGTCSPLRHSFQKQQNEK [R22N]
// result 3.42

// query Param item: FASDGDSGQCSPLRHSFQKQQREK [T9Q]
// result 4.04

// query Param item: FASDGDIGTCSPLRHSFQKQQREK [S7I]
// result 1.49

// query Param item: FASDGDSSTCSPLRHSFQKQQREK [G8S]
// result 3.58

// query Param item: NASDGDSGTCSPLRHSFQKQQREK [F1N]
// result 5.19

// query Param item: FADDGDSGTCSPLRHSFQKQQREK [S3D]
// result 4.03

// query Param item: FASDGDSGTCSPLRHWFQKQQREK [S16W]
// result 2.75

// query Param item: FASDGDSGTCSPLRHSFQKQQRIK [E23I]
// result 2.76

// query Param item: FASDGDQGTCSPLRHSFQKQQREK [S7Q]
// result 3.76

// query Param item: FASDGDSGTCSPLRHSMQKQQREK [F17M]
// result 3.95

// query Param item: FASDGDSGTCSPLRHSFQKQEREK [Q21E]
// result 3.84

// query Param item: FASDGDSGTCSPLRHSFQKQQREP [K24P]
// result 3.42

// query Param item: FASDGDSGTCSPLRHSFQKQAREK [Q21A]
// result 3.85

// query Param item: FASDGDSGTCLPLRHSFQKQQREK [S11L]
// result 3.94
